Assay: Cmax in Sprague-Dawley rat at 10 mg/kg, po by LC-MS analysis
Type: ADME, organism-based
Design: dose 10 mg/kg, route oral
Details: in vivo
propertyMeasured: Cmax (ng/mL)
Write the number in ng/mL without appending the unit.

Answered examples (3):
CN1C[C@@H](c2ccc(-c3ccc4c(c3)OC[C@H]3[C@H](COP(=O)(O)O)OC(=O)N43)cn2)OC1=O.N=C(N)NCCC[C@H](N)C(=O)O.N=C(N)NCCC[C@H](N)C(=O)O :: 170
CN1C[C@@H](c2ccc(-c3ccc4c(c3)OC[C@H]3[C@H](COP(=O)([O-])[O-])OC(=O)N43)cn2)OC1=O.[Na+].[Na+] :: 524
N#Cc1ccc(-c2ccc3c(c2)OC[C@H]2[C@H](COP(=O)([O-])[O-])OC(=O)N32)cn1.[Na+].[Na+] :: 15.2

# evaluate next
Ask: For the molecule O=C1OC(CO)CN1c1ccc(-c2ccc3c(c2)OC[C@H]2[C@H](CO)OC(=O)N32)cn1 (some centres undefined) , what Cmax is on record?
Reply: 332

---

Catalogue of MIC values
Test system: Staphylococcus aureus
Experiment: Antibacterial activity against methicillin-sensitive Staphylococcus aureus after 16 hrs by NCCLS agar dilution method
Type: functional
Numeric only. Scale: µg/mL

NC1(c2ccc(-c3ccc4c(c3)OC[C@H]3[C@H](CO)OC(=O)N43)cn2)CC1 :: 2
O=C1OC(CO)CN1c1ccc(-c2ccc3c(c2)OC[C@H]2[C@H](CO)OC(=O)N32)cn1 (stereo not given in full) :: 0.5

Ask: Return reported MIC; argument: O=C1O[C@@H](CO)[C@@H]2COc3cc(-c4ccc(N5CCC(O)CC5)nc4)ccc3N12
Reply: 2

Ask: Another molecule to look at: O=C1O[C@@H](CO)[C@@H]2COc3cc(-c4ccc(C5(O)CCCC5)nc4)ccc3N12
Reply: 2

Ask: Moving on to the next molecule: CN1C[C@H](c2ccc(-c3ccc4c(c3)OC[C@H]3[C@H](CO)OC(=O)N43)cn2)OC1=O
Reply: 1

---

Assay: AUC in Sprague-Dawley rat at 15 mg/kg, po by LC-MS analysis
Format: ADME, organism-based
Parameters: dose 15 mg/kg, route oral
Details: plasma
propertyMeasured: AUC (ng·h/mL)
The response must be a number in ng·h/mL with no trailing unit.

As a guide, the following entries are already answered.
CN1C[C@@H](c2ccc(-c3ccc4c(c3)OC[C@H]3[C@H](CO)OC(=O)N43)cn2)OC1=O :: 2170
N=C(N)NCCC[C@H](N)C(=O)O.N=C(N)NCCC[C@H](N)C(=O)O.O=C1OC(COP(=O)(O)O)CN1c1ccc(-c2ccc3c(c2)OC[C@H]2[C@H](CO)OC(=O)N32)cn1 (stereo partly drawn) :: 914

Moving on to another compound below.
Ask: For the compound shown here, O=C1OC(COP(=O)([O-])[O-])CN1c1ccc(-c2ccc3c(c2)OC[C@H]2[C@H](CO)OC(=O)N32)cn1.[Na+].[Na+] (stereo partly drawn) , give the reported AUC.
Reply: 1230

---

MIC for assorted compounds
Test system: Staphylococcus epidermidis
Assay: Antibacterial activity against methicillin-sensitive Staphylococcus epidermidis after 16 hrs by NCCLS agar dilution method
Assay type: functional

O=C1O[C@@H](CO)[C@@H]2COc3cc(-c4ccc(N5CCC(O)CC5)nc4)ccc3N12 :: 4 µg/mL
NCc1ccc(-c2ccc3c(c2)OC[C@H]2[C@H](CO)OC(=O)N32)cn1 :: 1 µg/mL
CC(C)(O)c1ccc(-c2ccc3c(c2)OC[C@H]2[C@H](CO)OC(=O)N32)cn1 :: 1 µg/mL
CN1CC(c2ccc(-c3ccc4c(c3)OC[C@H]3[C@H](CO)OC(=O)N43)cn2)OC1=O (stereo not given in full) :: 0.25 µg/mL

Read the next record carefully.
Ask: Return reported MIC; argument: N#Cc1ccc(-c2ccc3c(c2)OC[C@H]2[C@H](CN)OC(=O)N32)cn1
Reply: > 16 µg/mL
